Data origin, for the record: the supplement of paper PMC5412046

Tested on: SB.msgc-1
Test: area under the dose-response curve of % viability (trapezoidal, 11 doses) (% viability x log10 concentration); higher = less cytotoxic
Conditions: SB.msgc-1 (sporadic gastric cancer)
PROPERTY: area under the dose-response curve
Answers are plain numbers.

COMPOUND	area under the dose-response curve
O=C(N[C@H]1CN2CCC1CC2)c1ccc(Cl)cc1 (top concentration 46.0829 µM)	555

Fill in area under the dose-response curve for each of the 6 compounds listed.
1. NC1(C(=O)N[C@@H](CCO)c2ccc(Cl)cc2)CCN(c2ncnc3[nH]ccc23)CC1 [AZD-5363] (top concentration 46.0829 µM)
2. NC/1=N/C(=O)C2=C(N1)[N](C=N2)[C@@H]3C[C@H](O)[C@@H](CO)C3=C [Entecavir] (top concentration 46.0829 µM)
3. CN1CCN(C(=O)O[C@H]2c3nccnc3C(=O)N2c2ccc(Cl)cn2)CC1 [Zopiclone] (top concentration 46.0829 µM)
4. O=C1Nc2ccccc2/C1=C1\Nc2ccccc2C1=O [Indirubin] (top concentration 46.0829 µM)
5. CN1C2CCC1CC(OC(=O)C(CO)c1ccccc1)C2 (configuration not stated) [Atropine] (top concentration 46.0829 µM)
6. Cc1cccc(/C=N/Nc2cc(N3CCOCC3)nc(OCCc3ccccn3)n2)c1 [Apilimod] (top concentration 46.0829 µM)

451
494
523
473
543
447
